target-of-assay: T1, CD96 extracellular region with His tag (CD96-His) (human, UniProt P40200 22-519)
T1 construct: also called CD96-ECD-His; Bio-CD96-His (biotin-labelled form)
T1 sequence: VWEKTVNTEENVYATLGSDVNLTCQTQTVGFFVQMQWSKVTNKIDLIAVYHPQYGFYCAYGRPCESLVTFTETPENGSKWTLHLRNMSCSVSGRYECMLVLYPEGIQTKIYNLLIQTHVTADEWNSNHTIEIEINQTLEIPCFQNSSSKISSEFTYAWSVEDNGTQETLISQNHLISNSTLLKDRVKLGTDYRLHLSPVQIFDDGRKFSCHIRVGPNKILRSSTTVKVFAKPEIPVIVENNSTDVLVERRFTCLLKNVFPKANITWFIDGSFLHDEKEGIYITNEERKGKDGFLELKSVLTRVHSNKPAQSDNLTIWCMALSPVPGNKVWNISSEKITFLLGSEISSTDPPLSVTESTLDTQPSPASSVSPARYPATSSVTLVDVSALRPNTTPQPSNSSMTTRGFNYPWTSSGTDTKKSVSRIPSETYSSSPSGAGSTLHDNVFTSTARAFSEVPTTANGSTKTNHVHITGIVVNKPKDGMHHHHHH
assay-info: SPR (Biacore), antibody captured, CD96-ECD-His as mobile phase
Text: Protein A biosensor chip was used to capture antibodies to be tested, then CD96 antigen was flowed on the surface of the chip, and real time reaction signal was detected by Biacore to obtain the binding and dissociation curve. After the dissociation of each experimental cycle was completed, the biosensor chip was washed and regenerated with a glycine-hydrochloric acid regeneration solution (pH 1.5).
Field: pKd. Provide a value for each of the binders that follow.
One number for each entry, as −log10 of the molar value.

binder	pKd
h1721-011 (antibody, V domains shown, Only variable regions are tied to this name) VH: EVTLKESGPVLVKPTETLTLTCTVSGFSLSSYGVNWIRQPPGKALEWLGVIWGDGSTNYHSALISRLTISKDTSKSQVVLTLTNMDPVDTATYYCAKNYFYGSRYGYAMDSWGQGTTVTVSS VL: DIQMTQSPSSLSASVGDRVTITCRASENIYSSLAWYQQKPGKSPKLLVYNAKTLIEGVPSRFSGSGSGTDYTLTISSLQPEDFATYYCQHHYGTPYTFGGGTKVEIK	8.67

// moving on: another record for pKd
Query: What pKd value was documented for this binder, h1721-007 (antibody, V domains shown, Only variable regions are tied to this name) VH: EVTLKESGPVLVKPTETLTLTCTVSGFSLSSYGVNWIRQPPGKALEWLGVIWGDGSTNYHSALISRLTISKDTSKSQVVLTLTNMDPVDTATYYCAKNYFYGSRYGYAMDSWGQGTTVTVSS VL: DIQMTQSPSSLSASVGDRVTITCRASENIYSSLAWYQQKPGKAPKLLVYNAKTLIEGVPSRFSGSGSGTDYTLTISSLQPEDFATYYCQHHYGTPYTFGGGTKVEIK ?
Reply: 8.73
